From: patent US8193372B2

# Assay details: in vitro
# Settings: human
Readout label: CC50

COP(=O)(Nc1cc(-c2ccc(-c3cc4ccccc4s3)cc2)sc1C(=O)O)c1ccc(C)cc1C (centres unmarked) = > 8.3 µM
CCOP(=O)(Nc1cc(-c2ccc(Cl)c(Cl)c2)sc1C(=O)O)c1ccc(Cl)cc1Cl (centres unmarked) = > 8.3 µM
COP(=O)(Nc1cc(-c2ccc(NC(=O)c3cscn3)cc2)sc1C(=O)O)c1ccc(C)cc1C (centres unmarked) = > 8.3 µM
COP(=O)(Nc1cc(-c2cccc(F)c2)sc1C(=O)O)c1ccc(C)cc1C (centres unmarked) = > 8.3 µM
COP(=O)(Cc1cc(-c2ccccc2)sc1C(=O)O)c1ccc(C)cc1C (centres unmarked) = > 8.3 µM

State the recorded CC50 for every item in the following list.
1. CCCOP(=O)(Nc1cc(-c2ccc(Cl)cc2)sc1C(=O)O)c1ccc(C)cc1C (centres unmarked)
2. COP(=O)(Nc1cc(-c2ccccc2)sc1C(=O)O)c1ccc(C)cc1C (centres unmarked)

[reply]
> 8.3 µM
> 8.3 µM

[ask] # input molecule: COP(=O)(Nc1cc(I)sc1C(=O)O)c1ccc(C)cc1C (centres unmarked) ; wanted: its CC50
[reply] > 8.3 µM

====

# Assay details: in vitro
# Settings: human
Readout label: CC50

CCOP(=O)(Nc1cc(-c2ccc(C#N)cc2)sc1C(=O)O)c1ccc(Cl)cc1Cl (stereo not shown) = > 8.3 µM
COP(=O)(Nc1cc(-c2ccc(-c3ccc(Cl)c(Cl)c3)cc2)sc1C(=O)O)c1ccc(C)cc1C (stereo not shown) = > 8.3 µM
COP(=O)(Nc1cc(-c2ccc(-c3cc4nc(C)cc(N)n4n3)cc2)sc1C(=O)O)c1ccc(C)cc1C (stereo not shown) = > 8.3 µM
CCOP(=O)(Nc1cc(-c2ccc(-c3cc4ncccc4o3)cc2)sc1C(=O)O)c1ccc(Cl)cc1F (stereo not shown) = > 8.3 µM
CCOP(=O)(Nc1cc(-c2ccc(-c3cc4ncccc4o3)cc2)sc1C(=O)O)c1ccc(Cl)cc1Cl (stereo not shown) = > 8.3 µM
COc1ccc(-c2cc(NP(=O)(OC)c3ccc(C)cc3C)c(C(=O)O)s2)cc1 (stereo not shown) = > 8.3 µM
COP(=O)(Nc1cc(-c2ccc(-c3ccc(OCc4ccccc4)nc3)cc2)sc1C(=O)O)c1ccc(C)cc1C (stereo not shown) = > 8.3 µM
COP(=O)(Nc1cc(-c2ccc(C#CC3CC3)cc2)sc1C(=O)O)c1ccc(C)cc1C (stereo not shown) = > 8.3 µM
COP(=O)(Nc1cc(-c2ccc(-c3cc4ncccn4n3)cc2)sc1C(=O)O)c1ccc(C)cc1C (stereo not shown) = > 8.3 µM
CCOP(=O)(Nc1cc(-c2ccc(Cl)cc2)sc1C(=O)O)c1ccc(Cl)cc1C (stereo not shown) = > 8.3 µM

State the recorded CC50 for every item in the following list.
1. CCOP(=O)(c1ccc(C)cc1C)N(c1cc(-c2ccc(F)cc2)sc1C(=O)O)C(C)C (stereo not shown)
2. COP(=O)(Nc1cc(-c2ccc(C#Cc3cncn3C)cc2)sc1C(=O)O)c1ccc(C)cc1C (stereo not shown)
3. COP(=O)(Nc1cc(-c2cccnc2)sc1C(=O)O)c1ccc(C)cc1C (stereo not shown)

[reply]
1. > 8.3 µM
2. > 8.3 µM
3. > 8.3 µM

====

# Assay details: in vitro
# Settings: human
Would you mind telling me the reported CC50 of each entry?

Consider the following illustrative entries.
C#CCOP(=O)(Nc1cc(-c2ccc(Cl)cc2)sc1C(=O)O)c1ccc(C)cc1C (stereo not drawn) [Compound 106] = > 8.3 µM
COP(=O)(Nc1cc(-c2ccccc2)sc1C(=O)O)c1ccccc1 (stereo not drawn) [Compound 25] = > 8.3 µM

[ask] # input molecule: COP(=O)(Nc1cc(-c2ccc(F)cc2)sc1C(=O)O)c1ccc(C)cc1C (stereo not drawn) [Compound 21] ; wanted: its CC50
[reply] > 8.3 µM
